TESTED_TARGET: Mitogen-activated protein kinase 1 (Homo sapiens, UniProt P28482)
Sequence (P28482 whole entry): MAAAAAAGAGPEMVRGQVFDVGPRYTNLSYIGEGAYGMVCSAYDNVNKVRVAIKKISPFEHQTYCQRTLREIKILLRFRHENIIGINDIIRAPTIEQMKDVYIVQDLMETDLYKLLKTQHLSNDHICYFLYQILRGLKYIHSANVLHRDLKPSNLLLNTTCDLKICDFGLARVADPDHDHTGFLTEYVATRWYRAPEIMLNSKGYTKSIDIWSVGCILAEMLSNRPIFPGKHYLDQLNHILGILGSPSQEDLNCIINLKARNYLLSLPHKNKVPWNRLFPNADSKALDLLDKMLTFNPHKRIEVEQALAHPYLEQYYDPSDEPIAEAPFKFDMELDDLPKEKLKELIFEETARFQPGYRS
ASSAY_NOTES: Inhibition of Extracellular signal-regulated kinase 2 (ERK2)
# IC50 values compiled below

>  <COMPOUND>
CC1(COc2ccc(Cl)cc2NC(=O)Nc2cnc(C#N)cn2)COC1

>  <IC50>
> 50 µM

$$$$
>  <COMPOUND>
CC(CN(C)C)Oc1ccc(Cl)cc1NC(=O)Nc1cnc(C#N)cn1 (configuration not stated)

>  <IC50>
> 50 µM

$$$$

----------
ASSAY_NOTES: Inhibition of Protein kinase C gamma (PKCgamma)
pIC50: −log10 of the molar value.
# pIC50 values compiled below
REPORTED_ENDPOINT: pIC50

>  <COMPOUND>
CC(CN(C)C)Oc1ccc(Cl)cc1NC(=O)Nc1cnc(C#N)cn1 (configuration not stated)

>  <REPORTED_ENDPOINT>
pIC50

>  <QUAL>
=

>  <OBSERVED_MEASUREMENT>
4.30

$$$$
>  <COMPOUND>
CC1(COc2ccc(Cl)cc2NC(=O)Nc2cnc(C#N)cn2)COC1

>  <REPORTED_ENDPOINT>
pIC50

>  <QUAL>
<

>  <OBSERVED_MEASUREMENT>
4.30

$$$$
